Reported folding stability dG unfold by item:
- ASSAY PROCEDURE: folding stability dG unfold from trypsin proteolysis; higher = more stable
// return numeric value only (unit: kcal/mol, not printed)

Check out these entries, answers already filled in.
QUERY SEQUENCE: SAGGSAGGSAGMTLKVEVKVKVKVFDENGKLVREEEVTVEVEIELEPAPELRFLSEEELKSAGGSAGGSAGG [r17_325_TrROS_Hall]
SCALE UNIT: kcal/mol
folding stability dG unfold: 1.24
--
QUERY SEQUENCE: SAGGSAGGSAGGYKVKVYNPENGKPQEIPLPPNDIPELLDKLPNGPWWIRVKDPDRWIPLSAGGSAGGSAGG [r7_188_TrROS]
SCALE UNIT: kcal/mol
folding stability dG unfold: -1.05
--
QUERY SEQUENCE: SMSMEEAMEWAEENPDRPVIFINPEDWYIMIYNPKKGKMEMRPITSPEEALEELDDENIDRIYIVPADEISA [r9_775_TrROS]
SCALE UNIT: kcal/mol
folding stability dG unfold: 1.21
--
QUERY SEQUENCE: SAGGMIAPDEKVLVKVTLSEGTTSRELEFEFEVPPGATEEELKQRVIDEIPEEPRKNWKVEVEIKPVSAGGS [r16_321_JUSTAS]
SCALE UNIT: kcal/mol
folding stability dG unfold: 0.918
--
QUERY SEQUENCE: SAGGGRPILFRPPDGSVEVVPVPADATLEEVKEVAEAAAAARGYTELSFDPATETVTIDLGGDRVEAASAGG [r13_572_JUSTAS]
SCALE UNIT: kcal/mol
folding stability dG unfold: -1.46

# query: folding stability dG unfold of entry SAGGSAGGSAGGGKLAIRVEIEPVRTETRLRADGSLETRTEFRVRIEIRPVGNPDDPRNNSAGGSAGGSAGG [r7_523_TrMRF]
2.89

What would you report for SAGGSAGGSAGGMVYFPESLKEEVIEELKKKGYKIKSIEKIEGGYIRITTPKNPIEIKLLSAGGSAGGSAGG [r17_379_JUSTAS] ?
0.443

====

- ASSAY PROCEDURE: folding stability dG unfold from trypsin proteolysis; higher = more stable
Reported folding stability dG unfold by item:
# answer = value followed by unit

Check out these entries, answers already filled in.
QUERY SEQUENCE: SAMLPSIIIAKAKEAIEKSGKPVPVVIKIPVYKKENGPPVSLEKAKEIFEKLKEAFPDVPIIIELEEPESAG [r14_636_TrMRF]
PROPERTY LABEL: folding stability dG unfold
VALUE OBSERVED: 3.66 kJ/mol
//
QUERY SEQUENCE: SAGGSAGGSAGGMRKYLVTLKPPNGPVTRYILPSEEEIKEFVAPLNAEYEVTPLSEDVPPSAGGSAGGSAGG [r7_456_JUSTAS]
PROPERTY LABEL: folding stability dG unfold
VALUE OBSERVED: 0.233 kJ/mol
//
QUERY SEQUENCE: SAGMTVKVKVEVKTKYFDKNGKLVKEEKKTVEVEVEVKIVIELKPEDLEKAKELAEKLGIEITEEELKSAGG [r19_315_TrROS_Hall]
PROPERTY LABEL: folding stability dG unfold
VALUE OBSERVED: 5.27 kJ/mol

# query: folding stability dG unfold of entry SAGGSAGGMIVLPPGATVDFDPSVARLTVTVKDPNSDKSTTTTYDVPPTATVTSAPGTIVVNVPSAGGSAGG [r6_804_JUSTAS]
-2.74 kJ/mol

What would you report for SAGGSAGGSDYEYENEKDPDGQTKMKMRPKPPPVTVEVLIKLPNGLYFPIEITIYGNHITISISAGGSAGGS [r12_784_TrROS] ?
9.1 kJ/mol

What would you report for SAGGSAGGSAGKIPEIIKKTNAVEKDGKIFLGIKTDGKYYLIELEKKTLKIKKIEPFPDKSAGGSAGGSAGG [r11_808_TrMRF] ?
-0.565 kJ/mol

What would you report for SEDTVTIEVRAFPVKDKNGKPRFYVSIEFGNGPVSYPIPGLPEGMKEGETFTIEIPPENIKKVDISIMPYSA [r9_769_TrROS] ?
8.76 kJ/mol

What would you report for SAVIPLEELARKVAEELGLEPVEVLEVIPEEGVVVMRFEGAVIVVKVDPETGEAEVEIVVFDPETGKPVSAG [r14_270_TrMRF] ?
11.8 kJ/mol

What would you report for SAKKPKKVIEVTIVLPLEELKNMSLEELLKKILEELGIKEGEKVKIEVKLEEVEIDGKKYLVITVRIELSAG [r14_334_TrROS_Hall] ?
12 kJ/mol

What would you report for SAGGPVFEVTPEVDPDTDLVTYTVRVPADVDFAAVAKALETEFADGSRAEVKPLPDGTVVVVVRLPASAGGS [r8_255_TrMRF] ?
5.23 kJ/mol

What would you report for SAGGSAGGSAGGKKTITVPKGAVVRITYKNGEKKEVKAGETITIEDLPEDVKIEVVKVKKSAGGSAGGSAGG [r7_968_TrROS_Hall] ?
7.23 kJ/mol

What would you report for SAGGGMESRTLTLPKEEIEKVKEEIKKASNLDIKVTTKKLPNGEYELTITFSNPEDVEKFEKKLGIESAGGS [r16_172_JUSTAS] ?
8.31 kJ/mol

What would you report for SAGGSAMTPEELANVTVEVVTTTEPASPDLTLPDGTRLPPSTTVTTTTEVVVLPGGELLGTRVTVASAGGSA [r15_12_JUSTAS] ?
-1.57 kJ/mol

What would you report for SAGGSAGGSATITITVDGKTITLEVPEDSEVEIVFDEKTGKLFIKDKKTNKVYEVSLEELLSAGGSAGGSAG [r3_137_TrROS_Hall] ?
15 kJ/mol

====

- ASSAY PROCEDURE: folding stability dG unfold (combined trypsin and chymotrypsin); higher = more stable
PROPERTY LABEL: folding stability dG unfold (kcal/mol)
// return numeric value only (unit: kcal/mol, not printed)

Check out these entries, answers already filled in.
QUERY SEQUENCE: SAGGSAGGSMRLDLDDIKRVEREPTPNGMRVYEIKLKGHKLPIRYHDNKIEISPEFKDLLKDISAGGSAGGS [r20_92_TrROS]
PROPERTY LABEL: folding stability dG unfold
VALUE OBSERVED: -0.253
--
QUERY SEQUENCE: SAGGSAGGEVEIEVTEEEEVPGLPDQEIVTKAKLPDGKTVTIKRTVDPKTGKVSVSFSVIEPPLSAGGSAGG [r6_337_JUSTAS]
PROPERTY LABEL: folding stability dG unfold
VALUE OBSERVED: 0.363
--
QUERY SEQUENCE: SAGGSAGGSAGMTVTVPPDLDPESAIAALKAAAPASVKTVTLTIVDGEGPTTTVTVDITGSAGGSAGGSAGG [r17_215_JUSTAS]
PROPERTY LABEL: folding stability dG unfold
VALUE OBSERVED: 0.00145
--
QUERY SEQUENCE: SAGGSSKTEIYYNPKKPYFLIKVTYKNGKTKEYPIKGKGMSLEELKKKAEEIVKELNSEEFKEVVFNPSAGG [r13_267_TrMRF]
PROPERTY LABEL: folding stability dG unfold
VALUE OBSERVED: 2.53
--
QUERY SEQUENCE: SAGGSAGGGASTRRTITVPYEDPEEAFEKVKEEVKAETGKPTEVTLTEIDPNNPGVITVEVTVSSAGGSAGG [r6_211_JUSTAS]
PROPERTY LABEL: folding stability dG unfold
VALUE OBSERVED: 0.351

# query: folding stability dG unfold of entry SAGGSAGGSAGNDVINKKYTYTITETTEEKTPTDDPVSTTITTPIEITVKAPKDEVVIPDSAGGSAGGSAGG [r11_174_JUSTAS]
0.31

====

- ASSAY PROCEDURE: folding stability dG unfold (combined trypsin and chymotrypsin); higher = more stable
Label scheme for folding stability dG unfold: lower than 1 kcal/mol is label 0, 1 kcal/mol and above is label 1.

See these solved cases before continuing.
QUERY SEQUENCE: SAGGSAGGSAGGPDFKIEPVEKKGNYELYKAYIPETGEEFFLVYYPNPKEVKIYPSDYLSAGGSAGGSAGGS [r10_172_TrMRF]
CAT: label 1
//
QUERY SEQUENCE: PNFKIDIEIIKAEEVPPRPTDDGKPQPVRRIHIRIEVKGPPDQPPELANNIVEEIMAELQELGLPVHIHVWS [r1_305_TrROS]
CAT: label 1
//
QUERY SEQUENCE: SAGGSAGGSAGKPVTLTDANGTPYSVSQVTTDPNSATVTATFTSPTSSTTHTATYPVTPASAGGSAGGSAGG [r11_290_JUSTAS]
CAT: label 0

Hi, just wondering whether SAGGMKIKTKSGKELTLKKIKLKYKNKEYEIENLKIKAIKYDPKKKIVHIEVTHPNGKKYTFDLKIKSAGGS [r8_215_TrMRF] shows folding stability dG unfold of 1 kcal/mol or higher.
label 1

What would you report for SAGGSAGLPEAIAEAIARELQAEPGYELDVEAEVDPETGTLHIRARVRLPDDDTWFELEITVPLPASAGGSA [r15_464_TrMRF] ?
label 1

What would you report for SAGGSAGGSAGPITVPPGAVLLSVEEEGERTRVTVRLPGSGVVETYTFEPGEPVVVELPGSAGGSAGGSAGG [r11_774_JUSTAS] ?
label 1
